Quick list: pIC50 per entry.
target: CXCR7 (Homo sapiens, UniProt P25106); test: CXCR7 β-arrestin recruitment assay in CHO-CXCR7 cells (ProLink/EA β-galactosidase complementation), induced by human SDF-1a; details: assay buffer, SDF-1a at EC50 concentration
Sequence (P25106 whole entry): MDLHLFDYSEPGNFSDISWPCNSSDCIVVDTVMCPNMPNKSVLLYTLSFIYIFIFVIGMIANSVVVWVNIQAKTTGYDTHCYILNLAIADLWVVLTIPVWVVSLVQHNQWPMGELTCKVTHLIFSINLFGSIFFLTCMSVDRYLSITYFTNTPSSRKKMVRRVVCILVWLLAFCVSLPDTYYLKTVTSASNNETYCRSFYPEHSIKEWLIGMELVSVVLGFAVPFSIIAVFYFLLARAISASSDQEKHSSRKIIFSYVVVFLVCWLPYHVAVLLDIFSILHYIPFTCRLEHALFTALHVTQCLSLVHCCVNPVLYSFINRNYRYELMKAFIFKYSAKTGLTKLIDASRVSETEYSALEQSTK
pIC50: −log10 of the molar value.

Look over these answered cases.
| SMILES | pIC50 |
| --- | --- |
| COc1ccnc(C(C)(C)NC(=O)CC2(NC(=O)c3cc(-c4ccc(F)cc4F)on3)CN([C@H]3CC[C@](C)(O)CC3)C2)c1 | > 8.30 |
| Cc1cc(C(C)(C)NC(=O)CC2(NC(=O)c3cc(-c4ccc(F)cc4F)on3)CN(CC(C)(C)O)C2)ccn1 | 7.00 to 8.30 |
| CC(C)(NC(=O)CC1(NC(=O)c2cc(-c3ccc(F)cc3F)on2)CN(C2CCCCC2)C1)c1ccccc1 | > 8.30 |
| Cc1cccc(C(C)(C)NC(=O)CC2(NC(=O)c3cc(-c4ccc(F)cc4F)on3)CN(CC(C)(C)O)C2)n1 | 7.00 to 8.30 |

Task: Value lookup for pIC50; key = CC(C)(NC(=O)CC1(NC(=O)c2cc(-c3ccc(F)cc3F)on2)CN(C2CCC3(CC2)CC3)C1)c1ccccn1
Output: 7.00 to 8.30

---

Listing: IC50 of selected molecules
target: CXCR7 (Homo sapiens, UniProt P25106); assay: CXCR7 β-arrestin recruitment assay in CHO-CXCR7 cells (ProLink/EA β-galactosidase complementation), induced by human SDF-1a; conditions: assay buffer, SDF-1a at EC50 concentration

Task: Can you share its IC50? I mean this molecule: CC(C)(NC(=O)CC1(NC(=O)c2cc(-c3ccc(F)cc3F)on2)CN([C@H]2CC[C@](C)(O)CC2)C1)c1cccc(C#N)c1 [Example 1.173]
Output: < 5 nM

---

target: CXCR7 (Homo sapiens, UniProt P25106); assay: CXCR7 β-arrestin recruitment assay in CHO-CXCR7 cells (ProLink/EA β-galactosidase complementation), induced by human SDF-1a; details: assay buffer, SDF-1a at EC50 concentration
pIC50: −log10 of the molar value.
pIC50 overview

Answered examples (2):
| COMPOUND | pIC50 |
| --- | --- |
| O=C(CC1(NC(=O)c2cc(-c3ccc(F)cc3F)on2)CN(C2CCCCC2)C1)NC1(c2ccccc2)CC1 [Example 1.325] | 7.00 to 8.30 |
| CC(C)(NC(=O)CC1(NC(=O)c2cc(-c3ccc(F)cc3F)on2)CN(C2CCCC2)C1)c1ccccn1 [Example 1.094] | 7.00 to 8.30 |

Task: Recorded pIC50 of CC(C)(NC(=O)CC1(NC(=O)c2cc(-c3ccc(F)cc3F)on2)CN(C2CCCCC2)C1)c1ccccn1 [Example 1.326] , please.
Output: > 8.30

Task: Item: CC(C)(NC(=O)CC1(NC(=O)c2nnc(-c3ccc(F)cc3F)s2)CN([C@H]2CC[C@](C)(O)CC2)C1)c1ccccn1 [Example 1.063]
Output: 7.00 to 8.30

Task: Now this one: O=C(CC1(NC(=O)c2cc(-c3ccc(F)cc3F)on2)CN(C2CCCCC2)C1)N[C@@H](C(=O)O)c1ccccc1 [Example 1.282]
Output: 4.70 to 6.00

Task: Next entry: O=C(CC1(NC(=O)c2cc(-c3ccc(F)cc3F)on2)CN(C2CCCCC2)C1)N[C@H](C(=O)O)c1ccccc1 [Example 1.283]
Output: 4.70 to 6.00

Task: Let us now turn to CC(C)(NC(=O)CC1(NC(=O)c2cc(-c3ccc(F)cc3F)on2)CN(CC2COC2)C1)c1cccc(Cl)c1 [Example 1.135]
Output: 6.00 to 7.00

Task: Would you kindly repeat that for COc1cc(C(C)(C)NC(=O)CC2(NC(=O)c3cc(-c4ccc(F)cc4F)on3)CN([C@H]3CC[C@@](C)(O)CC3)C2)ccc1F [Example 1.176] ?
Output: 7.00 to 8.30

Task: Can you handle CC1(C)CCC(N2CC(CC(=O)NC(C)(C)c3cc(Cl)cc(Cl)c3)(NC(=O)c3cc(-c4ccc(F)cc4F)on3)C2)CC1 [Example 1.105] next?
Output: > 8.30

All values here come from patent US12448373B2.
